Would you mind telling me the reported Phage binding ELISA signal, Anti-PSMA Fab in presence of PSMA of each entry?
# TESTED_ON: T1, 006 PSMA Fab (biotinylated (site not stated))
# T1 construct: also called Anti-PSMA Fab
# TEST_METHOD_NOTES: clonal phage ELISA on captured PSMA Fab, wells pre-incubated with PSMA antigen as competitor
Numbers only.

BINDER	OBSERVED_VALUE
EGIYCRPAWMCEGF (Peptide-180 library clone, tested as clonal phage (peptide fused to pIII)) [Phage-2943]	0.0765

Record Phage binding ELISA signal, Anti-PSMA Fab in presence of PSMA for all entries; do not skip any.
1. FDKICVPTWMCTGF (Peptide-180 library clone, tested as clonal phage (peptide fused to pIII)) [Phage-2940]
2. DVRMCKPSWMCIGL (Peptide-180 library clone, tested as clonal phage (peptide fused to pIII)) [Phage-2941]
3. EMRMCTPPWMCWGF (Peptide-180 library clone, tested as clonal phage (peptide fused to pIII)) [Phage-2946]

Completion:
[0.107, 0.0754, 0.112]
